# key: entry, value: inhibition
biological target: Macrophage-stimulating protein receptor (Homo sapiens); details: at 1 µM
Description: GSK_PKIS: RON mean inhibition at 1 uM [Nanosyn]
Record the value in %, omitting the unit from your answer.

Observe how each entry below is paired with its result.
1. CCn1c(-c2nonc2N)nc2ccncc21 | 0.11
2. O=C1Nc2ccc(C(=O)c3ccco3)cc2C1=Cc1cc(Cl)c(O)c(Cl)c1 | 18.8
3. CS(=O)(=O)Nc1ccc(N/C=C2\C(=O)Nc3ccccc32)cc1 | 6.3
4. O=C1NC(=O)C(c2cccc(Cl)c2)=C1Nc1ccc(O)c(Cl)c1 | 6
5. CCn1c(-c2nonc2N)nc2cncc(C(=O)N3CCNCC3)c21 | 4.33

Name the recorded inhibition of CS(=O)(=O)CCNCc1nc(-c2ccc3ncnc(Nc4ccc(F)c(Cl)c4)c3c2)cs1 , assay system Macrophage-stimulating protein receptor (Homo sapiens).
-0.2

Tell me inhibition of CCn1c(-c2nonc2N)nc2cncc(C(=O)N3CC[C@H](N)C3)c21 when tested on Macrophage-stimulating protein receptor (Homo sapiens).
6.19

// provenance: ChEMBL document CHEMBL1961873
